Kindly state IC50 for each of the entries shown.
Return type: number; implicit unit nM.

(Q) Lookup: IC50 / Acetylcholinesterase (Electrophorus electricus, UniProt O42275) / O=C(NCCCCCNc1c2c(nc3ccccc13)CCCC2)C1CCN(C(=O)c2ccncc2)CC1
(A) 291

(Q) Under Acetylcholinesterase (Electrophorus electricus, UniProt O42275): IC50 value of O=C(NCCCCCNc1c2c(nc3ccccc13)CCCC2)C1CCN(C(=O)c2cccc(Cl)c2)CC1 ?
(A) 159

(Q) Enter reported IC50 observed with Acetylcholinesterase (Electrophorus electricus, UniProt O42275) for COc1ccccc1C(=O)N1CCC(C(=O)NCCCCCNc2c3c(nc4ccccc24)CCCC3)CC1
Sequence (O42275 whole entry): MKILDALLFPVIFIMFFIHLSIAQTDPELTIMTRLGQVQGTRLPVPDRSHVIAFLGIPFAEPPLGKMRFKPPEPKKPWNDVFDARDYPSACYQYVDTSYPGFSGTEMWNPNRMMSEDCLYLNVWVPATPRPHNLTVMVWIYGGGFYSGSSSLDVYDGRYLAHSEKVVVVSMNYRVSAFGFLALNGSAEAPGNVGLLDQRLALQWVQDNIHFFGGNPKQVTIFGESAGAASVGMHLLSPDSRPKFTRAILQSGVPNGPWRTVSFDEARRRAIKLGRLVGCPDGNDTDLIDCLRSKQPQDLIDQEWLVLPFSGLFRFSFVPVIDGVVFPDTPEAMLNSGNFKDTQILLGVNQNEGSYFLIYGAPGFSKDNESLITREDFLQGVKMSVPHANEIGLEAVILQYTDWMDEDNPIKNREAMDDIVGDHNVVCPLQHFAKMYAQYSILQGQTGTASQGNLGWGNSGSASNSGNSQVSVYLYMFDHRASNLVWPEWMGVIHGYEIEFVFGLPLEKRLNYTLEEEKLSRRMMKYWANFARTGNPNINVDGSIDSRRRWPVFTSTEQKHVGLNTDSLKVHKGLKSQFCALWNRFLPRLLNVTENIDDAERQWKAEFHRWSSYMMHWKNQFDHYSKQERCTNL
(A) 226

(Q) Quick check: IC50 on Acetylcholinesterase (Electrophorus electricus, UniProt O42275), item O=C(NCCCCCNc1c2c(nc3ccccc13)CCCC2)C1CCN(C(=O)c2ccc(F)cc2)CC1 ?
(A) 370
